Tested on: HeLa Kyoto
Assay Name: melting temperature (median over replicates), in situ; higher = more thermally stable
Applied Conditions: cell cycle stage: G1/S
# maps each entry to its melting temperature
Report the value in °C with no unit label.

Please review the following examples before continuing.
Q: Which melting temperature is listed for MRLSWFRVLTVLSICLSAVATATGAEGKRKLQIGVKKRVDHCPIKSRKGDVLHMHYTGKLEDGTEFDSSLPQNQPFVFSLGTGQVIKGWDQGLLGMCEGEKRKLVIPSELGYGERGAPPKIPGGATLVFEVELLKIERRTEL [FKBP2] ?
Ans: 53.1

Q: // next record MSAFSEAALEKKLSELSNSQQSVQTLSLWLIHHRKHSRPIVTVWERELRKAKPNRKLTFLYLANDVIQNSKRKGPEFTKDFAPVIVEAFKHVSSETDESCKKHLGRVLSIWEERSVYENDVLEQLKQALYGDKKPRKRTYEQIKVDENENCSSLGSPSEPPQTLDLVRALQDLENAASGDAAVHQRIASLPVEVQEVSLLDKITDKESGERLSKMVEDACMLLADYNGRLAAEIDDRKQLTRMLADFLRCQKEALAEKEHKLEEYKRKLARVSLVRKELRSRIQSLPDLSRLPNVTGSHMHLPFAGDIYSED [RPRD1A]
Ans: 48

Further cases:
Q: Record request: melting temperature value, item MFVPCGESAPDLAGFTLLMPAVSVGNVGQLAMDLIISTLNMSKIGYFYTDCLVPMVGNNPYATTEGNSTELSINAEVYSLPSRKLVALQLRSIFIKYKSKPFCEKLLSWVKSSGCARVIVLSSSHSYQRNDLQLRSTPFRYLLTPSMQKSVQNKIKSLNWEEMEKSRCIPEIDDSEFCIRIPGGGITKTLYDESCSKEIQMAVLLKFVSEGDNIPDALGLVEYLNEWLQILKPLSDDPTVSASRWKIPSSWRLLFGSGLPPALF [PSMG2]
Ans: 54.2

###

Tested on: HeLa Kyoto
Assay Name: solubility in G1/S (NP-40 vs SDS abundance) (log2 ratio); higher = more soluble
Applied Conditions: cell cycle stage: G1/S
Collected solubility in G1/S (log2) values appear next to each entry.
Give your answer as a number; write no unit.

Q: Entry MAGRLLGKALAAVSLSLALASVTIRSSRCRGIQAFRNSFSSSWFHLNTNVMSGSNGSKENSHNKARTSPYPGSKVERSQVPNEKVGWLVEWQDYKPVEYTAVSVLAGPRWADPQISESNFSPKFNEKDGHVERKSKNGLYEIENGRPRNPAGRTGLVGRGLLGRWGPNHAADPIITRWKRDSSGNKIMHPVSGKHILQFVAIKRKDCGEWAIPGGMVDPGEKISATLKREFGEEALNSLQKTSAEKREIEEKLHKLFSQDHLVIYKGYVDDPRNTDNAWMETEAVNYHDETGEIMDNLMLEAGDDAGKVKWVDINDKLKLYASHSQFIKLVAEKRDAHWSEDSEADCHAL [NUDT9] has what solubility in G1/S (log2)?
Ans: 0.41

New cases:
Q: Consider the sequence shown here: MSVRVARVAWVRGLGASYRRGASSFPVPPPGAQGVAELLRDATGAEEEAPWAATERRMPGQCSVLLFPGQGSQVVGMGRGLLNYPRVRELYAAARRVLGYDLLELSLHGPQETLDRTVHCQPAIFVASLAAVEKLHHLQPSVIENCVAAAGFSVGEFAALVFAGAMEFAEGLYAVKIRAEAMQEASEAVPSGMLSVLGQPQSKFNFACLEAREHCKSLGIENPVCEVSNYLFPDCRVISGHQEALRFLQKNSSKFHFRRTRMLPVSGAFHTRLMEPAVEPLTQALKAVDIKKPLVSVYSNVHAHRYRHPGHIHKLLAQQLVSPVKWEQTMHAIYERKKGRGFPQTFEVGPGRQLGAILKSCNMQAWKSYSAVDVLQTLEHVDLDPQEPPR [MCAT] What is its recorded solubility in G1/S (log2)?
Ans: 0.3
